Test system: Escherichia coli TOP10
Experiment: shrunken log2 fold change of peptide-encoding DNA abundance (4.5 h post-induction vs induction); higher = less antimicrobial activity (less host growth inhibition)
Conditions: time post-induction: 4.5 h; library: site-saturation at positions 5, 18, 19, 20
# shrunken log2 fold change annotations
Reply briefly: the number, and no unit.

Query: For the sequence RRIRDRPPRLPRPRPRPLAKPRP , what shrunken log2 fold change is on record?
Reply: 0.96

Query: For the sequence RRIRVRPPRLPRPRPRPIAHPRP , what shrunken log2 fold change is on record?
Reply: -0.126

Query: For the sequence RRIRQRPPRLPRPRPRPNELPRP , what shrunken log2 fold change is on record?
Reply: -0.24

Query: For the sequence RRIRDRPPRLPRPRPRPGTLPRP , what shrunken log2 fold change is on record?
Reply: -0.00146

Query: For the sequence RRIRHRPPRLPRPRPRPYNMPRP , what shrunken log2 fold change is on record?
Reply: -0.186

Continuing:
Query: For the sequence RRIRFRPPRLPRPRPRPMTWPRP , what shrunken log2 fold change is on record?
Reply: 0.478

Query: For the sequence RRIRPRPPRLPRPRPRPGMTPRP , what shrunken log2 fold change is on record?
Reply: 0.0694

Query: For the sequence RRIRRRPPRLPRPRPRPNQMPRP , what shrunken log2 fold change is on record?
Reply: 0.388

Query: For the sequence RRIRCRPPRLPRPRPRPPWLPRP , what shrunken log2 fold change is on record?
Reply: 0.241

Query: For the sequence RRIRCRPPRLPRPRPRPVQYPRP , what shrunken log2 fold change is on record?
Reply: -0.203

Query: For the sequence RRIRVRPPRLPRPRPRPNQHPRP , what shrunken log2 fold change is on record?
Reply: -0.289

---

Test system: Escherichia coli TOP10;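 also: peptides expressed intracellularly from a pBAD plasmid library in pooled LB shake-flask culture, induced with 0.3% L-arabinose, DNA abundance read by NGS, three biological replicates, DESeq2 with apeglm shrinkage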
Test: shrunken log2 fold change of peptide-encoding DNA abundance (4.5 h post-induction vs induction); higher = less antimicrobial activity (less host growth inhibition)
Conditions: time post-induction: 4.5 h; library: site-saturation at positions 5, 18, 19, 20
MEASURE: shrunken log2 fold change
Reply briefly: the number, and no unit.

Query: For the sequence RRIRVRPPRLPRPRPRPGELPRP , what shrunken log2 fold change is on record?
Reply: -0.0483

Query: For the sequence RRIRNRPPRLPRPRPRPKWCPRP , what shrunken log2 fold change is on record?
Reply: -0.00686

Query: For the sequence RRIRKRPPRLPRPRPRPIEIPRP , what shrunken log2 fold change is on record?
Reply: -0.0122

Query: For the sequence RRIRIRPPRLPRPRPRPWIFPRP , what shrunken log2 fold change is on record?
Reply: -0.498

Query: For the sequence RRIRQRPPRLPRPRPRPPHYPRP , what shrunken log2 fold change is on record?
Reply: 0.37

Continuing:
Query: For the sequence RRIRGRPPRLPRPRPRPVVTPRP , what shrunken log2 fold change is on record?
Reply: -0.216

Query: For the sequence RRIRCRPPRLPRPRPRPFDWPRP , what shrunken log2 fold change is on record?
Reply: -0.0737

Query: For the sequence RRIRYRPPRLPRPRPRPKGPPRP , what shrunken log2 fold change is on record?
Reply: -0.0132

Values compiled from the supplement of paper PMC9112550.
